# Test system: T47D
# TEST DETAILS: Cytotoxicity against human T47D cells by MTT assay
# Assay type: functional, cell-based
pIC50: −log10 of the molar value.

[
  {
    "STRUCTURE STRING": "CS(=O)(=O)N1CCN(Cc2cc3nc(-c4cccc5[nH]ncc45)nc(N4CCOCC4)c3s2)CC1",
    "ASSAYED SYSTEM": "T47D",
    "pIC50": 5.92
  },
  {
    "STRUCTURE STRING": "Cc1nc2nc(Oc3ccccc3)cnc2cc1NC(=O)Nc1ccccc1",
    "ASSAYED SYSTEM": "T47D",
    "pIC50": 5.03
  },
  {
    "STRUCTURE STRING": "Cc1nc2nc(Sc3ccccc3)cnc2cc1NC(=O)Nc1ccccc1",
    "ASSAYED SYSTEM": "T47D",
    "pIC50": 5.24
  },
  {
    "STRUCTURE STRING": "Cc1nc2nc(Sc3ccccc3)cnc2cc1NC(=O)c1ccccc1",
    "ASSAYED SYSTEM": "T47D",
    "pIC50": 5.82
  }
]

---

Item-by-item account of pIC50
# System: SK-BR-3
# TEST DETAILS: Cytotoxicity against human SKBR3 cells by MTT assay
# Type: functional, cell-based
pIC50: −log10 of the molar value.

[
  {
    "COMPOUND": "CS(=O)(=O)N1CCN(Cc2cc3nc(-c4cccc5[nH]ncc45)nc(N4CCOCC4)c3s2)CC1 [PICTILISIB]",
    "pIC50": 6.05
  },
  {
    "COMPOUND": "Cc1nc2nc(Sc3ccccc3)cnc2cc1NC(=O)Nc1ccccc1",
    "pIC50": 5.74
  },
  {
    "COMPOUND": "Cc1nc2nc(Oc3ccccc3)cnc2cc1NC(=O)Nc1ccccc1",
    "pIC50": 5.14
  },
  {
    "COMPOUND": "Cc1nc2nc(Sc3ccccc3)cnc2cc1NC(=O)c1ccccc1",
    "pIC50": 5.43
  }
]

---

# TEST DETAILS: Cmax in NOD/SCID mouse at 10 mg/kg, ip administered as single dose by LC-MS/MS method
# Format: ADME, organism-based
# Set-up: dose 10 mg/kg, route intraperitoneal
# ASSAY SETUP: in vivo
QUANTITY: Cmax

[
  {
    "STRUCTURE STRING": "Cc1nc2nc(Sc3ccccc3)cnc2cc1NC(=O)Nc1ccccc1",
    "QUANTITY": "Cmax",
    "RESULT": "4.3 to 4.32 µM"
  }
]

---

# TEST DETAILS: Tmax in NOD/SCID mouse at 0.5 mg/kg, po administered as single dose by LC-MS/MS method
# Type: ADME, organism-based
# ASSAY SETUP: in vivo

[
  {
    "STRUCTURE STRING": "Cc1nc2nc(Sc3ccccc3)cnc2cc1NC(=O)c1ccccc1",
    "Tmax, min": 15
  },
  {
    "STRUCTURE STRING": "Cc1nc2nc(Sc3ccccc3)cnc2cc1NC(=O)Nc1ccccc1",
    "Tmax, min": 60
  }
]

---

# TEST DETAILS: AUC (0 to 8 hrs) in NOD/SCID mouse at 0.5 mg/kg, po administered as single dose by LC-MS/MS method
# Format: ADME, organism-based
# Design: time < 8 hr, dose 0.5 mg/kg, route oral
# ASSAY SETUP: in vivo

[
  {
    "STRUCTURE STRING": "Cc1nc2nc(Sc3ccccc3)cnc2cc1NC(=O)c1ccccc1",
    "AUC(0-t) at 8 h": "0.43 µM·h"
  },
  {
    "STRUCTURE STRING": "Cc1nc2nc(Sc3ccccc3)cnc2cc1NC(=O)Nc1ccccc1",
    "AUC(0-t) at 8 h": "1.53 µM·h"
  }
]

---

# TEST DETAILS: Tmax in NOD/SCID mouse at 10 mg/kg, ip administered as single dose by LC-MS/MS method
# Assay type: ADME, organism-based
# ASSAY SETUP: in vivo

[
  {
    "STRUCTURE STRING": "Cc1nc2nc(Sc3ccccc3)cnc2cc1NC(=O)Nc1ccccc1",
    "Tmax / h": 2
  }
]

---

# TEST DETAILS: AUC (0 to 8 hrs) in NOD/SCID mouse at 40 mg/kg, ip administered as single dose by LC-MS/MS method
# Assay type: ADME, organism-based
# Design: time < 8 hr, dose 40 mg/kg, route intraperitoneal
# ASSAY SETUP: in vivo

[
  {
    "STRUCTURE STRING": "Cc1nc2nc(Sc3ccccc3)cnc2cc1NC(=O)Nc1ccccc1",
    "UNIT TAG": "µM·h",
    "AUC(0-t) at 8 h": 131
  }
]

---

# System: MCF7
# TEST DETAILS: Cytotoxicity against human MCF7 cells at 10 uM by MTT assay
# Assay type: functional
Each item that follows carries a reported Activity.

[
  {
    "STRUCTURE STRING": "Cc1nc2nc(Sc3ccccc3)cnc2cc1NC(=O)c1ccc([N+](=O)[O-])cc1",
    "Activity": "<50%"
  },
  {
    "STRUCTURE STRING": "COc1cc(C(=O)Nc2cc3ncc(Sc4ccccc4)nc3nc2C)cc(OC)c1OC",
    "Activity": "<50%"
  },
  {
    "STRUCTURE STRING": "Cc1nc2nc(Sc3ccccc3)cnc2cc1NC(=O)Nc1ccccc1",
    "Activity": ">50%"
  },
  {
    "STRUCTURE STRING": "Cc1nc2nccnc2cc1NC(=O)c1ccccc1",
    "Activity": "<50%"
  },
  {
    "STRUCTURE STRING": "Cc1nc2nc(Sc3ccccc3)cnc2cc1NC(=O)c1cccc(C(F)(F)F)c1",
    "Activity": "<50%"
  },
  {
    "STRUCTURE STRING": "Cc1nc2nc(Sc3ccccc3)cnc2cc1NC(=O)Nc1ccc(F)c([N+](=O)[O-])c1",
    "Activity": "<50%"
  },
  {
    "STRUCTURE STRING": "Cc1ccc(C(=O)Nc2cc3nccnc3nc2C)cc1",
    "Activity": "<50%"
  },
  {
    "STRUCTURE STRING": "Cc1nc2nccnc2cc1NC(=O)CN1CCN(C)CC1",
    "Activity": "<50%"
  },
  {
    "STRUCTURE STRING": "Cc1nc2nccnc2cc1NC(=O)c1cccc(C(F)(F)F)c1",
    "Activity": "<50%"
  },
  {
    "STRUCTURE STRING": "Cc1ccc(C(=O)Nc2cc3ncc(Sc4ccccc4)nc3nc2C)cc1",
    "Activity": "<50%"
  },
  {
    "STRUCTURE STRING": "Cc1nc2nc(Oc3ccccc3)cnc2cc1NC(=O)Nc1ccccc1",
    "Activity": ">50%"
  }
]

---

# ASSAYED SYSTEM: Phosphatidylinositol 4,5-bisphosphate 3-kinase catalytic subunit alpha isoform (Homo sapiens, UniProt P42336, H1047R)
# Sequence (P42336 whole entry H1047R, canonical isoform): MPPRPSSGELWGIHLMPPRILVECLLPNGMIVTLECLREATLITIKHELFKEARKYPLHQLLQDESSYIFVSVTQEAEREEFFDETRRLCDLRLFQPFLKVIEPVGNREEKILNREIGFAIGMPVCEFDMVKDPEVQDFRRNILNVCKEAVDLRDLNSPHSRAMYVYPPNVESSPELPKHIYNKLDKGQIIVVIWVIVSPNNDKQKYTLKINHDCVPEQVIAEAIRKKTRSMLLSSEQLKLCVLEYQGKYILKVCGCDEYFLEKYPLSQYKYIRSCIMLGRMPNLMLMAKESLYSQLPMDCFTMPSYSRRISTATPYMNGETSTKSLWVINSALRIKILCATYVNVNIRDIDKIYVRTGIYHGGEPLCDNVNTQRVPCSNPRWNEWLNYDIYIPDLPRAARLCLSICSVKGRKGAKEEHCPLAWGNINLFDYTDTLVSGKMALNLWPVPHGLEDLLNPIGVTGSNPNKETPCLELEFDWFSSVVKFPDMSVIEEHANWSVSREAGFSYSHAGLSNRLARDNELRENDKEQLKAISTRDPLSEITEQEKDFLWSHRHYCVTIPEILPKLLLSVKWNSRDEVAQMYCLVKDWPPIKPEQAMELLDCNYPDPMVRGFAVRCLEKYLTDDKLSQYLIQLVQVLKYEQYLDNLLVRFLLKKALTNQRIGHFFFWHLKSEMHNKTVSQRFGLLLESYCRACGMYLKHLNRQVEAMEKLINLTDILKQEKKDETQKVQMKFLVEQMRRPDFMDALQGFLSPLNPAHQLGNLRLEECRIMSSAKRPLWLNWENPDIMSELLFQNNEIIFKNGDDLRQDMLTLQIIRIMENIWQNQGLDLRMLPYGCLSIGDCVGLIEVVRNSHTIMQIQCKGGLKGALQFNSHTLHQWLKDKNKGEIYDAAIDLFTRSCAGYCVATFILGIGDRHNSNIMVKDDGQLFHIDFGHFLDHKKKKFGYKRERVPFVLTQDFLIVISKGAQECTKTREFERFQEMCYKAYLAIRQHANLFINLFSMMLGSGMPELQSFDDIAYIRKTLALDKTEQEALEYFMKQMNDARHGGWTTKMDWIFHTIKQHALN
# TEST DETAILS: Inhibition of PI3Kalpha H1047R mutant (unknown origin) using PIP2 liposomes as substrate in presence of biotin-labeled PIP3 and GST-GRP1-PH by streptavidin-HRP based assays
pIC50: −log10 of the molar value.
QUANTITY: pIC50

[
  {
    "STRUCTURE STRING": "Cc1nc2nc(Sc3ccccc3)cnc2cc1NC(=O)Nc1ccccc1",
    "NUMERIC READOUT": 4.66
  }
]

---

# TEST DETAILS: Tmax in NOD/SCID mouse at 10 mg/kg, ip administered twice by LC-MS/MS method
# Type: ADME, organism-based
# ASSAY SETUP: in vivo
QUANTITY: Tmax (h)

[
  {
    "STRUCTURE STRING": "Cc1nc2nc(Sc3ccccc3)cnc2cc1NC(=O)Nc1ccccc1",
    "NUMERIC READOUT": 2
  }
]

---

# TEST DETAILS: Tmax in NOD/SCID mouse at 0.5 mg/kg, ip administered as single dose by LC-MS/MS method
# Format: ADME, organism-based
# ASSAY SETUP: in vivo
Below, each of the compounds is paired with its reported Tmax value.

[
  {
    "STRUCTURE STRING": "Cc1nc2nc(Sc3ccccc3)cnc2cc1NC(=O)Nc1ccccc1",
    "UNIT TAG": "min",
    "Tmax": 30
  },
  {
    "STRUCTURE STRING": "Cc1nc2nc(Sc3ccccc3)cnc2cc1NC(=O)c1ccccc1",
    "UNIT TAG": "min",
    "Tmax": 30
  }
]
